- measured target: recombinant Calcineurin (CaN) (Homo sapiens (Human), UniProt P63098+Q08209)
- test: Calcineurin phosphatase inhibition assay without cyclophilin A
- Type: biochemical
- condition info: RII phosphopeptide substrate, read-out: CaN Inhibition (IC50, nM) − CypA
Starred links: 1 amine or outer side, 2 acyl side, 3 side chain; linkers in the order of their positions; H or OH if unused. Non-standard residues stand in square brackets, D forms with d. Residues, ends and D or L forms follow the SMILES beside them. MeBmt = C/C=C/C[C@@H](C)[C@@H](O)[C@H](NC)C(=O)O; X1 = CN([C@H](OCCN1CCOCC1)C(=O)[*:2])[*:1]; X2 = CN(C)CCO[C@H](C(=O)[*:2])N(C)[*:1]; NMeL = CN[C@@H](CC(C)C)C(=O)O; NMeV = CN[C@H](C(=O)O)C(C)C; Nva = CCC[C@H](N)C(=O)O
Reported IC50 is given for each of the following compounds.
Hi! Could you send only the number? It should be in nM, unit omitted.

INSERT INTO assay_data (compound, measured_target, parameter_measured, endpoint_unit, reported) VALUES
  ('C/C=C/C[C@@H](C)[C@@H](O)[C@H]1C(=O)N[C@@H](CCC)C(=O)N(C)[C@H](OCCN2CCOCC2)C(=O)N(C)[C@@H](CC(C)C)C(=O)N[C@@H](C(C)C)C(=O)N(C)[C@@H](CC(C)C)C(=O)N[C@@H](C)C(=O)N[C@H](C)C(=O)N(C)[C@@H](CC(C)C)C(=O)N(C)[C@@H](CC(C)C)C(=O)N(C)[C@@H](C(C)C)C(=O)N1C [Compound 8] (cyclo(A[dA][NMeL][NMeL][NMeV][MeBmt][Nva][X1][NMeL]V[NMeL]))', 'recombinant Calcineurin (CaN) (Homo sapiens (Human), UniProt P63098+Q08209)', 'IC50', 'nM', 7830),
  ('C/C=C/C[C@@H](C)[C@@H](O)[C@H]1C(=O)N[C@@H](C(C)C)C(=O)N(C)[C@H](OCCN(C)C)C(=O)N(C)[C@@H](CC(C)C)C(=O)N[C@@H](C(C)C)C(=O)N(C)[C@@H](CC(C)C)C(=O)N[C@@H](C)C(=O)N[C@H](C)C(=O)N(C)[C@@H](CC(C)C)C(=O)N(C)[C@@H](CC(C)C)C(=O)N(C)[C@@H](C(C)C)C(=O)N1C [Compound 3] (cyclo(A[dA][NMeL][NMeL][NMeV][MeBmt]V[X2][NMeL]V[NMeL]))', 'recombinant Calcineurin (CaN) (Homo sapiens (Human), UniProt P63098+Q08209)', 'IC50', 'nM', 5510),
  ('C/C=C/C[C@@H](C)[C@@H](O)[C@H]1C(=O)N[C@@H](CC)C(=O)N(C)[C@H](OCC/N=C/N(C)C)C(=O)N(C)[C@@H](CC(C)C)C(=O)N[C@@H](C(C)C)C(=O)N(C)[C@@H](CC(C)C)C(=O)N[C@@H](C)C(=O)N[C@H](C)C(=O)N(C)[C@@H](CC(C)C)C(=O)N(C)[C@@H](CC(C)C)C(=O)N(C)[C@@H](C(C)C)C(=O)N1C', 'recombinant Calcineurin (CaN) (Homo sapiens (Human), UniProt P63098+Q08209)', 'IC50', 'nM', 3710),
  ('C/C=C/C[C@@H](C)[C@@H](O)[C@H]1C(=O)N[C@@H](C(C)C)C(=O)N(C)[C@H](OCCN2CCOCC2)C(=O)N(C)[C@@H](CC(C)C)C(=O)N[C@@H](C(C)C)C(=O)N(C)[C@@H](CC(C)C)C(=O)N[C@@H](C)C(=O)N[C@H](C)C(=O)N(C)[C@@H](CC(C)C)C(=O)N(C)[C@@H](CC(C)C)C(=O)N(C)[C@@H](C(C)C)C(=O)N1C [Compound 4] (cyclo(A[dA][NMeL][NMeL][NMeV][MeBmt]V[X1][NMeL]V[NMeL]))', 'recombinant Calcineurin (CaN) (Homo sapiens (Human), UniProt P63098+Q08209)', 'IC50', 'nM', 4190);

We now examine a further compound.
Please fill in: IC50 reported for C/C=C/C[C@@H](C)[C@@H](O)[C@H]1C(=O)N[C@@H](CCC)C(=O)N(C)[C@H](OCCN(C)C)C(=O)N(C)[C@@H](CC(C)C)C(=O)N[C@@H](C(C)C)C(=O)N(C)[C@@H](CC(C)C)C(=O)N[C@@H](C)C(=O)N[C@H](C)C(=O)N(C)[C@@H](CC(C)C)C(=O)N(C)[C@@H](CC(C)C)C(=O)N(C)[C@@H](C(C)C)C(=O)N1C [Compound 7] (cyclo(A[dA][NMeL][NMeL][NMeV][MeBmt][Nva][X2][NMeL]V[NMeL])) = 3220

----------
- measured target: UniProtKB P30405
- Sequence (P30405 30-207): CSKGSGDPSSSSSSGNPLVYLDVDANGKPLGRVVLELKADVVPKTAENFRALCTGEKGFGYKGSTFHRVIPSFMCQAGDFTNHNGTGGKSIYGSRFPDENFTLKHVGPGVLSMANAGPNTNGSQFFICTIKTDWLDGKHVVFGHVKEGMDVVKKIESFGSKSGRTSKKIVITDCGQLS
- test: Cyclophilin peptidyl-prolyl isomerase functional assay (PPIase), CypD
- Format: biochemical
- condition info: human recombinant enzyme, 10° C.; read-out: Inhibition (Ki, nM) Human CypD
Starred links: 1 amine or outer side, 2 acyl side, 3 side chain; linkers in the order of their positions; H or OH if unused. Non-standard residues stand in square brackets, D forms with d. Residues, ends and D or L forms follow the SMILES beside them. ξ: configuration not given here. NMeBmt(3-oxo) = C/C=C/C[C@@H](C)C(=O)[C@H](NC)C(=O)O; MeBmt = C/C=C/C[C@@H](C)[C@@H](O)[C@H](NC)C(=O)O; ξThr(3S) = C[C@H](O[*:3])C(N[*:1])C(=O)[*:2]; X1 = CN([C@H](OCCN1CCOCC1)C(=O)[*:2])[*:1]; X2 = CN(C)CCO[C@H](C(=O)[*:2])N(C)[*:1]; NMeL = CN[C@@H](CC(C)C)C(=O)O; NMeV = CN[C@H](C(=O)O)C(C)C
Reported Ki is given for each of the following molecules.
Hi! Could you send only the number? It should be in nM, unit omitted.

Below are worked cases with known answers.
INSERT INTO results (molecule, parameter_measured, endpoint_unit, reported) VALUES
  ('C/C=C/C[C@@H](C)[C@@H](O)[C@H]1C(=O)N[C@@H](CC)C(=O)N(C)[C@H](OCC/N=C/N(C)C)C(=O)N(C)[C@@H](CC(C)C)C(=O)N[C@@H](C(C)C)C(=O)N(C)[C@@H](CC(C)C)C(=O)N[C@@H](C)C(=O)N[C@H](C)C(=O)N(C)[C@@H](CC(C)C)C(=O)N(C)[C@@H](CC(C)C)C(=O)N(C)[C@@H](C(C)C)C(=O)N1C', 'Ki', 'nM', 9.7),
  ('C/C=C/C[C@@H](C)C(=O)[C@H]1C(=O)N[C@@H](C(C)C)C(=O)N(C)[C@H](OCCN2CCOCC2)C(=O)N(C)[C@@H](CC(C)C)C(=O)N[C@@H](C(C)C)C(=O)N(C)[C@@H](CC(C)C)C(=O)N[C@@H](C)C(=O)N[C@H](C)C(=O)N(C)[C@@H](CC(C)C)C(=O)N(C)[C@@H](CC(C)C)C(=O)N(C)[C@@H](C(C)C)C(=O)N1C [Compound 6] (cyclo(A[dA][NMeL][NMeL][NMeV][NMeBmt(3-oxo)]V[X1][NMeL]V[NMeL]))', 'Ki', 'nM', 150);

We now examine a further molecule.
Please fill in: Ki reported for C/C=C/C[C@@H](C)[C@@H](O)[C@H]1C(=O)NC([C@H](C)O)C(=O)N(C)[C@H](OCCN(C)C)C(=O)N(C)[C@@H](CC(C)C)C(=O)N[C@@H](C(C)C)C(=O)N(C)[C@@H](CC(C)C)C(=O)N[C@@H](C)C(=O)N[C@H](C)C(=O)N(C)[C@@H](CC(C)C)C(=O)N(C)[C@@H](CC(C)C)C(=O)N(C)[C@@H](C(C)C)C(=O)N1C (stereo partly drawn) [Compound 2] (cyclo(A[dA][NMeL][NMeL][NMeV][MeBmt][ξThr(3S)][X2][NMeL]V[NMeL])) = 78

----------
- measured target: recombinant Calcineurin (CaN) (Homo sapiens (Human), UniProt P62937+P63098+Q08209)
- test: Calcineurin phosphatase inhibition assay with cyclophilin A
- Assay type: biochemical
- condition info: RII phosphopeptide substrate, read-out: CaN Inhibition (IC50, nM) + CypA
Starred links: 1 amine or outer side, 2 acyl side, 3 side chain; linkers in the order of their positions; H or OH if unused. Non-standard residues stand in square brackets, D forms with d. Residues, ends and D or L forms follow the SMILES beside them. ξ: configuration not given here. MeBmt = C/C=C/C[C@@H](C)[C@@H](O)[C@H](NC)C(=O)O; ξThr(3S) = C[C@H](O[*:3])C(N[*:1])C(=O)[*:2]; X2 = CN(C)CCO[C@H](C(=O)[*:2])N(C)[*:1]; NMeL = CN[C@@H](CC(C)C)C(=O)O; NMeV = CN[C@H](C(=O)O)C(C)C
parameter measured: IC50 (nM)
Hi! Could you send only the number? It should be in nM, unit omitted.

INSERT INTO assay_data (compound, reported) VALUES
  ('C/C=C/C[C@@H](C)[C@@H](O)[C@H]1C(=O)N[C@@H](CC)C(=O)N(C)[C@H](OCC/N=C/N(C)C)C(=O)N(C)[C@@H](CC(C)C)C(=O)N[C@@H](C(C)C)C(=O)N(C)[C@@H](CC(C)C)C(=O)N[C@@H](C)C(=O)N[C@H](C)C(=O)N(C)[C@@H](CC(C)C)C(=O)N(C)[C@@H](CC(C)C)C(=O)N(C)[C@@H](C(C)C)C(=O)N1C', 1830),
  ('C/C=C/C[C@@H](C)[C@@H](O)[C@H]1C(=O)N[C@@H](CC)C(=O)N(C)[C@H](OCC/N=C(\C)N(C)C)C(=O)N(C)[C@@H](CC(C)C)C(=O)N[C@@H](C(C)C)C(=O)N(C)[C@@H](CC(C)C)C(=O)N[C@@H](C)C(=O)N[C@H](C)C(=O)N(C)[C@@H](CC(C)C)C(=O)N(C)[C@@H](CC(C)C)C(=O)N(C)[C@@H](C(C)C)C(=O)N1C', 2020),
  ('C/C=C/C[C@@H](C)[C@@H](O)[C@H]1C(=O)N[C@@H](C(C)C)C(=O)N(C)[C@H](OCCN(C)C)C(=O)N(C)[C@@H](CC(C)C)C(=O)N[C@@H](C(C)C)C(=O)N(C)[C@@H](CC(C)C)C(=O)N[C@@H](C)C(=O)N[C@H](C)C(=O)N(C)[C@@H](CC(C)C)C(=O)N(C)[C@@H](CC(C)C)C(=O)N(C)[C@@H](C(C)C)C(=O)N1C [Compound 3] (cyclo(A[dA][NMeL][NMeL][NMeV][MeBmt]V[X2][NMeL]V[NMeL]))', 1320);

Please fill in: IC50 reported for C/C=C/C[C@@H](C)[C@@H](O)[C@H]1C(=O)NC([C@H](C)O)C(=O)N(C)[C@H](OCCN(C)C)C(=O)N(C)[C@@H](CC(C)C)C(=O)N[C@@H](C(C)C)C(=O)N(C)[C@@H](CC(C)C)C(=O)N[C@@H](C)C(=O)N[C@H](C)C(=O)N(C)[C@@H](CC(C)C)C(=O)N(C)[C@@H](CC(C)C)C(=O)N(C)[C@@H](C(C)C)C(=O)N1C (stereo partly drawn) [Compound 2] (cyclo(A[dA][NMeL][NMeL][NMeV][MeBmt][ξThr(3S)][X2][NMeL]V[NMeL])) = 5000
